A collection of compounds and their measured MEAN CORPUSCULAR VOLUME
Species on record: Rattus norvegicus
test-method-notes: DrugMatrix - Regimen: Daily Repeat
Format: toxicity, organism-based, Sprague-Dawley
Set-up: regimen Daily Repeat, gender Male, age 6-8 weeks
condition-set: in vivo, po, 0 mg/kg, 120 h, tissue Blood, route oral GAVAGE, dose level Control, time 5 day, vehicle 100 % WATER
endpoint: MEAN CORPUSCULAR VOLUME (fL)

compound="CC(O)CO (stereo not drawn)" result_unit=fL readout_value=62.68
compound=C[C@](N)(Cc1ccc(O)c(O)c1)C(=O)O result_unit=fL readout_value=63.72
compound="COc1cc2nc(N3CCN(C(=O)C4COc5ccccc5O4)CC3)nc(N)c2cc1OC (stereo not drawn)" result_unit=fL readout_value=63.15
compound=NCCCCCC(=O)O result_unit=fL readout_value=62.68
compound=Nc1c2c(nc3ccccc13)CCCC2 result_unit=fL readout_value=60.66
compound=Cn1cc[nH]c1=S result_unit=fL readout_value=63.3
compound="C=CCC1(C(C)CCC)C(=O)NC(=O)NC1=O (stereo not drawn)" result_unit=fL readout_value=63.12
compound=CNNCc1ccc(C(=O)NC(C)C)cc1 result_unit=fL readout_value=63.05
